Kindly supply the reported % Kill values for the records listed here.
Tested on: T47D cells
method_description: Cell viability (cell kill) assay
Format: cell-based
applied_conditions: T47D; Table 19
Experimental: Next, the ability of anti-PRLR-DM1 antibody-drug conjugates (i.e., anti-PRLR antibodies conjugated to DM1 via a non-cleavable linker [SMCC]) to reduce cell viability was determined using in vitro cell based assays. […] The 293, PC3 and T47D cells were incubated with CCK8 (Dojindo, Rockville, Md.) for the final 1-3 hours and the absorbance at 450 nm (OD450) was determined on a Flexstation3 (Molecular Devices, Sunnyvale, Calif.). […]
Answers are plain numbers, in %.

H1H6953N-mc-VC-PAB-MMD (conjugate) VH: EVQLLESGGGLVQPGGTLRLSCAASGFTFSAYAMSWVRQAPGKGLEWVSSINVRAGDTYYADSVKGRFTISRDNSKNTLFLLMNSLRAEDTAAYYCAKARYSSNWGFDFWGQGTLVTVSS VL: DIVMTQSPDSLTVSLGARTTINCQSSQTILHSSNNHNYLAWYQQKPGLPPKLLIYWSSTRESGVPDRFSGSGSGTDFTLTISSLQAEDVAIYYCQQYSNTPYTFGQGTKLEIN : 90
H1H6953N-SMCC-DM1 (conjugate) VH: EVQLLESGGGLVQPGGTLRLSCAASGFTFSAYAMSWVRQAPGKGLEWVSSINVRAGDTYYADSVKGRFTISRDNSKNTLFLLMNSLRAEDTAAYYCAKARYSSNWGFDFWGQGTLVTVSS VL: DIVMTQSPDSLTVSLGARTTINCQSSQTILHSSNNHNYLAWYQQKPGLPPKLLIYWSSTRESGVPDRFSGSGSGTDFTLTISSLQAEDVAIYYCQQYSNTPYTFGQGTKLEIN : 100

Could you share which % Kill value was measured for H1H6953N-mc-VC-PAB-MMAE (conjugate) VH: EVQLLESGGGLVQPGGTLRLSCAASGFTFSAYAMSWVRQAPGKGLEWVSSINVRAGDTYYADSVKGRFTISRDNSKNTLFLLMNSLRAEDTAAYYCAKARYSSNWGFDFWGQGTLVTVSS VL: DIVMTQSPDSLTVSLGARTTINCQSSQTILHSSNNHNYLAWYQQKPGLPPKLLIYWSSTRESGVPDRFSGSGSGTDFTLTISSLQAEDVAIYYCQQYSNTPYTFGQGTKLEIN ?
80
